Listed next: entries and their corresponding protein stability index.
B1: TRAF3IP2 (parent)
chain: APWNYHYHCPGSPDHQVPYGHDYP

variants of: B1; assay: protein stability index of a GFP-peptide fusion (GPS, HEK-293T) (PSI 1-6); higher = more stable; details: c terminus: a fixed tail appended;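 further: lentivirally expressed fusions sorted by FACS into six bins by GFP to DsRed ratio, PSI derived from sequencing read proportions per bin multiplied by bin number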
Kindly provide the number alone.

Exercise: Find the recorded protein stability index belonging to `G20C` and report it.
Solution: 2.42

Exercise: Quick one: protein stability index of `P2T` ?
Solution: 2.21

Exercise: protein stability index lookup needed for `D14V` , thanks.
Solution: 2.09
